system: RSV A2; experiment: Screening for RSV inhibition using Viral ToxGlo assay in HEp-2 cells; format: cell-based; conditions: human respiratory syncytial virus, HEp-2, 72 h
Class definitions on EC50: 0 = under 0.3 µM, 1 = from 0.3 µM up to 0.5 µM, 2 = 0.5 µM and over

# compound, qualitative_label
records = [
    ("COc1ccc(Oc2ccc(Nc3ccc4ccccc4n3)c(C3CC3)c2)c(F)c1 [Compound 52]", 1),
    ("Cc1c(Nc2ccc3cccc(Cl)c3n2)cccc1OCc1ccccc1 [Compound 50]", 0),
    ("Cc1cc(OC(C)C)ccc1Nc1ccc2cccc(Cl)c2n1 [Compound 10]", 2),
    ("Cc1cc(OCc2ccccc2)ccc1Nc1ccc2cccc(Cl)c2n1 [Compound 47]", 1),
    ("Cc1cc(OC(C)C)c(C2CC2)cc1Nc1ccc2cccc(Cl)c2n1 [Compound 48]", 1),
    ("Cc1c(Nc2ccc3cccc(Cl)c3n2)cccc1Oc1ccccc1 [Compound 55]", 0),
    ("Cc1cc(Oc2ccc(O)cc2F)ccc1Nc1ccc2ccccc2n1 [Compound 53]", 0),
    ("CCCc1cc(OC(F)(F)F)ccc1Nc1ccc2cccc(Cl)c2n1 [Compound 6]", 2),
]

---

system: Chikungunya Virus (CHIKV) strain LR2006-OPY1 with GFP modification (CHIK 5'LR); assay: Inhibition of Chikungunya virus (CHIKV) production in infected HEK293T cell line (GFP fluorescence); type: cell-based; settings: HEK-293T, compounds at 1 μM, infected HEK293T cells, MOI 0.1, 22 h, values above 100 lowered to 100, read-out: % CHIKV Inhibition Mean (n = 2)
property_measured: inhibition at 1 µM (%)

# smiles_text, assay_system, unit_info, result_number
rows = [
    ("CCc1cc(Oc2ccccc2F)ccc1Nc1ccc2ccccc2n1", "Chikungunya Virus (CHIKV) strain LR2006-OPY1 with GFP modification (CHIK 5'LR)", "%", 99),
    ("Cc1cc(OC2CCCC2)ccc1Nc1ccc2cccc(Cl)c2n1", "Chikungunya Virus (CHIKV) strain LR2006-OPY1 with GFP modification (CHIK 5'LR)", "%", 98),
    ("CC(C)Cc1cc(OC(F)(F)F)ccc1Nc1ccc2cccc(Cl)c2n1", "Chikungunya Virus (CHIKV) strain LR2006-OPY1 with GFP modification (CHIK 5'LR)", "%", 100),
    ("Fc1ccccc1Oc1ccc(Nc2ccc3ccccc3n2)cc1", "Chikungunya Virus (CHIKV) strain LR2006-OPY1 with GFP modification (CHIK 5'LR)", "%", 97),
    ("CC(C)Oc1ccc(Nc2ccc3cccc(Cl)c3n2)c(C2CC2)c1", "Chikungunya Virus (CHIKV) strain LR2006-OPY1 with GFP modification (CHIK 5'LR)", "%", 99),
    ("FC(F)(F)Oc1ccc(Nc2ccc3ccccc3n2)c(C2CC2)c1", "Chikungunya Virus (CHIKV) strain LR2006-OPY1 with GFP modification (CHIK 5'LR)", "%", 100),
    ("Cc1cc(Oc2ccccc2F)ccc1Nc1ccc2ccccc2n1", "Chikungunya Virus (CHIKV) strain LR2006-OPY1 with GFP modification (CHIK 5'LR)", "%", 98),
    ("Cc1cc(OC(F)(F)F)ccc1Nc1ccc2cccc(Cl)c2n1", "Chikungunya Virus (CHIKV) strain LR2006-OPY1 with GFP modification (CHIK 5'LR)", "%", 97),
    ("CCc1cc(OC(F)(F)F)ccc1Nc1ccc2cccc(Cl)c2n1", "Chikungunya Virus (CHIKV) strain LR2006-OPY1 with GFP modification (CHIK 5'LR)", "%", 100),
    ("CCOc1ccc(Nc2ccc3cccc(Cl)c3n2)c(C)c1", "Chikungunya Virus (CHIKV) strain LR2006-OPY1 with GFP modification (CHIK 5'LR)", "%", 95),
    ("CCCc1cc(OC(F)(F)F)ccc1Nc1ccc2cccc(Cl)c2n1", "Chikungunya Virus (CHIKV) strain LR2006-OPY1 with GFP modification (CHIK 5'LR)", "%", 100),
    ("Cc1cc(OCc2ccccn2)ccc1Nc1ccc2cccc(Cl)c2n1", "Chikungunya Virus (CHIKV) strain LR2006-OPY1 with GFP modification (CHIK 5'LR)", "%", 82),
    ("CCc1cc(OC(F)(F)F)ccc1Nc1ccc2ccccc2n1", "Chikungunya Virus (CHIKV) strain LR2006-OPY1 with GFP modification (CHIK 5'LR)", "%", 99),
    ("Cc1cc(OC2CCC2)ccc1Nc1ccc2cccc(Cl)c2n1", "Chikungunya Virus (CHIKV) strain LR2006-OPY1 with GFP modification (CHIK 5'LR)", "%", 100),
    ("Cc1cc(OC(C)C)ccc1Nc1ccc2cccc(Cl)c2n1", "Chikungunya Virus (CHIKV) strain LR2006-OPY1 with GFP modification (CHIK 5'LR)", "%", 100),
    ("Cc1cc(OC2CCCCC2)ccc1Nc1ccc2cccc(Cl)c2n1", "Chikungunya Virus (CHIKV) strain LR2006-OPY1 with GFP modification (CHIK 5'LR)", "%", 100),
    ("Fc1ccccc1Oc1ccc(Nc2ccc3cccc(Cl)c3n2)cc1", "Chikungunya Virus (CHIKV) strain LR2006-OPY1 with GFP modification (CHIK 5'LR)", "%", 90),
    ("Cc1cc(OCCOC(F)(F)F)ccc1Nc1ccc2cccc(Cl)c2n1", "Chikungunya Virus (CHIKV) strain LR2006-OPY1 with GFP modification (CHIK 5'LR)", "%", 91),
    ("Cc1ccc(Oc2ccc(Nc3ccc4cccc(Cl)c4n3)cc2)cc1", "Chikungunya Virus (CHIKV) strain LR2006-OPY1 with GFP modification (CHIK 5'LR)", "%", 93),
    ("CCc1cc(OC(C)C)ccc1Nc1ccc2cccc(Cl)c2n1", "Chikungunya Virus (CHIKV) strain LR2006-OPY1 with GFP modification (CHIK 5'LR)", "%", 100),
    ("FC(F)(F)Oc1ccc(Nc2ccc3cccc(Cl)c3n2)c(C2CC2)c1", "Chikungunya Virus (CHIKV) strain LR2006-OPY1 with GFP modification (CHIK 5'LR)", "%", 100),
    ("Cc1c(Nc2ccc3cccc(Cl)c3n2)ccc(OC(C)C)c1C", "Chikungunya Virus (CHIKV) strain LR2006-OPY1 with GFP modification (CHIK 5'LR)", "%", 100),
]

---

Entries and their EC50
tested on: RSV A2; test: Screening for RSV inhibition using Viral ToxGlo assay in HEp-2 cells; assay type: cell-based; details: human respiratory syncytial virus, HEp-2, 72 h

# compound, assay_system, EC50 [nM]
records = [
    ("Cc1cc(Oc2ccccc2)ccc1Nc1ccc2cccc(Cl)c2n1 [Compound 56, 2,2,2-trifluoroacetate]", "RSV A2", 132),
    ("Cc1cc(Oc2ccc3ccccc3c2)ccc1Nc1ccc2cccc(Cl)c2n1", "RSV A2", 473),
    ("Cc1cc(OC(C)C)c(C)cc1Nc1ccc2cccc(Cl)c2n1", "RSV A2", 348),
    ("Cc1cc(Oc2ccccc2F)ccc1Nc1ccc2ccccc2n1", "RSV A2", 200),
    ("Cc1ccc(Oc2ccc(Nc3ccc4ccccc4n3)cc2)cc1", "RSV A2", 1780),
    ("Cc1cc(Oc2cccc3ccccc23)ccc1Nc1ccc2cccc(Cl)c2n1", "RSV A2", 94),
    ("Cc1cc(OC(F)(F)F)ccc1Nc1ccc2cccc(Cl)c2n1", "RSV A2", 3310),
    ("COc1ccc(Oc2ccc(Nc3ccc4ccccc4n3)c(C)c2)cc1", "RSV A2", 412),
    ("CCc1cc(OC(C)C)ccc1Nc1ccc2cccc(Cl)c2n1", "RSV A2", 1180),
]
